Cited source for all entries: patent US20110280770A1

- protocol-text: Biodistribution in B16/F1 flank tumor bearing C57 mice
- Type: in vivo
- test-context: both sexes, C57, mouse, tumor (B16/F1 flank tumor), iv, 0.27 mCi, total radioactivity; 40 min post injection; tail vein
Non-standard residues stand in square brackets, D forms with d. Residues, ends and D or L forms follow the SMILES beside them. *: point of attachment. NOTA = O=C(O)CN1CCN(CC(=O)O)CCN(CC(=O)*)CC1

molecule | tissue uptake at 40 min [%ID/g]
CC(C)[C@H](NC(=O)[C@@H]1CCCN1C(=O)[C@H](CCCNC(=N)N)NC(=O)[C@H](CS)NC(=O)[C@H](Cc1c[nH]c2ccccc12)NC(=O)[C@H](CCCNC(=N)N)NC(=O)[C@@H](Cc1ccccc1)NC(=O)[C@H](Cc1c[nH]cn1)NC(=O)[C@H](CCC(=O)O)NC(=O)[C@H](CS)NC(=O)[C@H](CS)NC(=O)CNC(=O)CNC(=O)CNC(=O)CN1CCN(CC(=O)O)CCN(CC(=O)O)CC1)C(N)=O [^62Cu-NOTA-2-GGG-Arg11, metal not drawn] ({NOTA}-GGGCCEH[dF]RWCRPV-NH2) | 9.43

====

- Test system: B16/F1 flank tumor
- protocol-text: Biodistribution in B16/F1 flank tumor bearing C57 mice
- Type: in vivo
- test-context: 20 min post injection; tail vein
Non-standard residues stand in square brackets, D forms with d. Residues, ends and D or L forms follow the SMILES beside them. *: point of attachment. NOTA = O=C(O)CN1CCN(CC(=O)O)CCN(CC(=O)*)CC1

compound | display-unit | Tumor uptake
CC(C)[C@H](NC(=O)[C@@H]1CCCN1C(=O)[C@H](CCCNC(=N)N)NC(=O)[C@H](CS)NC(=O)[C@H](Cc1c[nH]c2ccccc12)NC(=O)[C@H](CCCNC(=N)N)NC(=O)[C@@H](Cc1ccccc1)NC(=O)[C@H](Cc1c[nH]cn1)NC(=O)[C@H](CCC(=O)O)NC(=O)[C@H](CS)NC(=O)[C@H](CS)NC(=O)CNC(=O)CNC(=O)CNC(=O)CN1CCN(CC(=O)O)CCN(CC(=O)O)CC1)C(N)=O [^62Cu-NOTA-2-GGG-Arg11, metal not drawn] ({NOTA}-GGGCCEH[dF]RWCRPV-NH2) | %ID/g | 4.65
